tested on: S. pneumoniae 02J1175 Mef(A)
Could you mark each record Met if its MIC falls strictly under 0.2 µg/mL, and Not met if it equals or exceeds it?

The following compounds have reported results that may help.
Compound: C[C@H](NCCCNC(=N)N)c1ccc(-n2cc3cc(-c4cc(CCC5(CN)CC5)cc(Cl)c4F)[nH]c3nc2=O)cc1
Measurement Target: S. pneumoniae 02J1175 Mef(A)
Assigned Class: Not met
//
Compound: C=C[C@@H](NCCCNC(=N)N)c1ccc(-n2cc3cc(-c4cc(CCC[C@H](C)N)cc(Cl)c4F)[nH]c3nc2=O)cc1
Measurement Target: S. pneumoniae 02J1175 Mef(A)
Assigned Class: Not met
//
Compound: C[C@@H](N)CCCc1cc(Cl)c(F)c(-c2cc3cn(-c4ccc(CNCCCNC(=N)N)cc4)c(=O)nc3[nH]2)c1
Measurement Target: S. pneumoniae 02J1175 Mef(A)
Assigned Class: Not met
//
Compound: COC[C@H](N)CCCc1cc(Cl)c(F)c(-c2cc3cn(-c4ccc(CNCCCNC(=N)N)cc4)c(=O)nc3[nH]2)c1
Measurement Target: S. pneumoniae 02J1175 Mef(A)
Assigned Class: Not met
//
Compound: CC(C)c1cc(CCC[C@H](C)N)cc(-c2cc3cn(-c4ccc([C@H](C)NCCCNC(=N)N)cc4)c(=O)nc3[nH]2)c1F
Measurement Target: S. pneumoniae 02J1175 Mef(A)
Assigned Class: Not met
//
Compound: C[C@H](NCCCNC(=N)N)c1ccc(-n2cc3cc(-c4cc(CCC[C@@H](N)CO)cc(Cl)c4F)[nH]c3nc2=O)cc1
Measurement Target: S. pneumoniae 02J1175 Mef(A)
Assigned Class: Met

is_below(MIC, 0.2 µg/mL) for C[C@H](NCCCNC(=N)N)c1ccc(-n2cc3cc(-c4cc(C5CCC(CN)CC5)cc(Cl)c4F)[nH]c3nc2=O)cc1 (stereo partly shown) ?
Not met

Lab note: MIC threshold 0.2 µg/mL. Does this compound come in strictly under it? NC[C@H]1O[C@H](O[C@H]2[C@H](O)[C@@H](O[C@H]3O[C@H](CO)[C@@H](O)[C@H](N)[C@H]3O)[C@H](N)C[C@@H]2N)[C@H](N)C[C@@H]1O [Tobramycin, reference compound]
Not met

Does this compound meet the criterion MIC < 0.2 µg/mL? "C[C@H](N)CCCc1cc(OC(F)(F)F)c(F)c(-c2cc3cn(-c4ccc([C@H](C)NCCCNC(=N)N)cc4)c(=O)nc3[nH]2)c1"
Not met

is_below(MIC, 0.2 µg/mL) for "C[C@H](N)CCCc1cc(-c2cc3cn(-c4ccc(CNCCCNC(=N)N)cc4)c(=O)nc3[nH]2)c(F)c(Cl)c1F" ?
Not met

----------
tested on: B. pseudomallei; test: microbe, parasite or virus in culture; assay type: cell-based; conditions: Burkholderia pseudomallei, read-out: B. pseudomallei MIC90
Would you mind telling me the reported MIC90 of each entry?
One number for each entry, in µg/mL.

Worked cases, answers included:
Smiles: C[C@H](N)CCCc1cc(OC(F)(F)F)c(F)c(-c2cc3cn(-c4ccc([C@H](C)NCCCNC(=N)N)cc4)c(=O)nc3[nH]2)c1
Unit Abbreviation: µg/mL
MIC90: 4

Smiles: C=C[C@@H](NCCCNC(=N)N)c1ccc(-n2cc3cc(-c4cc(CCC[C@H](C)N)cc(Cl)c4F)[nH]c3nc2=O)cc1
Unit Abbreviation: µg/mL
MIC90: 4

Smiles: C[C@H](NCCCNC(=N)N)c1ccc(-n2cc3cc(-c4cc(CCC[C@@H](N)CF)cc(Cl)c4F)[nH]c3nc2=O)cc1
Unit Abbreviation: µg/mL
MIC90: 16

Smiles: C=C[C@H](NCCCNC(=N)N)c1ccc(-n2cc3cc(-c4cc(CCC[C@H](C)N)cc(Cl)c4F)[nH]c3nc2=O)cc1
Unit Abbreviation: µg/mL
MIC90: 2

Smiles: COC[C@H](N)CCCc1cc(Cl)c(F)c(-c2cc3cn(-c4ccc(CNCCCNC(=N)N)cc4)c(=O)nc3[nH]2)c1
Unit Abbreviation: µg/mL
MIC90: 16

Smiles: C[C@H](NCCCNC(=N)N)c1ccc(-n2cc3cc(-c4cc(CCC[C@@H](N)CO)cc(Cl)c4F)[nH]c3nc2=O)cc1
Unit Abbreviation: µg/mL
MIC90: 16

Give me MIC90 for each of these molecules, listed below.
1. C[C@H](NCCCNC(=N)N)c1ccc(-n2cc3cc(-c4cc(CCC5(CN)CC5)cc(Cl)c4F)[nH]c3nc2=O)cc1
2. C[C@@H](N)CCCc1cc(Cl)c(F)c(-c2cc3cn(-c4ccc(CNCCCNC(=N)N)cc4)c(=O)nc3[nH]2)c1
3. C[C@H](N)CCCc1cc(Cl)c(F)c(-c2cc3cn(-c4ccc([C@H](N)CCCCNC(=N)N)cc4)c(=O)nc3[nH]2)c1
4. CC(C)c1cc(CCC[C@H](C)N)cc(-c2cc3cn(-c4ccc([C@H](C)NCCCNC(=N)N)cc4)c(=O)nc3[nH]2)c1F
5. C[C@H](N)CCCc1cc(-c2cc3cn(-c4ccc(CNCCCNC(=N)N)cc4)c(=O)nc3[nH]2)c(F)c(Cl)c1F

1. 4
2. 4
3. 8
4. 4
5. 8

Provide MIC90 values for the following items, in order.
1. C[C@H](N)CCCc1cc(-c2cc3cn(-c4ccc([C@H](C)NCCCNC(=N)N)cc4)c(=O)nc3[nH]2)c(F)c(Cl)c1F
2. CCc1cc(CCC[C@H](C)N)cc(-c2cc3cn(-c4ccc(CNCCCNC(=N)N)cc4)c(=O)nc3[nH]2)c1F

1. 8
2. 4

----------
system: B. anthracis; experiment: microbe, parasite or virus in culture; type: cell-based; details: Bacillus anthracis, read-out: B. anthracis MIC90
Quantity: MIC90
I'd appreciate it if you included the unit after the number.

Smiles: C[C@H](N)CCCc1cc(OC(F)(F)F)c(F)c(-c2cc3cn(-c4ccc([C@H](C)NCCCNC(=N)N)cc4)c(=O)nc3[nH]2)c1
MIC90: 0.25 µg/mL

Would you mind listing MIC90 for each of the following compounds?
1. C=C[C@@H](NCCCNC(=N)N)c1ccc(-n2cc3cc(-c4cc(CCC[C@H](C)N)cc(Cl)c4F)[nH]c3nc2=O)cc1
2. C[C@H](N)CCCc1cc(Cl)c(F)c(-c2cc3cn(-c4ccc([C@H](N)CCCCNC(=N)N)cc4)c(=O)nc3[nH]2)c1
3. C[C@H](NCCCNC(=N)N)c1ccc(-n2cc3cc(-c4cc(CCC5(CN)CC5)cc(Cl)c4F)[nH]c3nc2=O)cc1

["0.5 µg/mL", "0.06 µg/mL", "0.5 µg/mL"]

Quick one: give me MIC90 for each item below, same order please.
1. C[C@H](N)CCCc1cc(-c2cc3cn(-c4ccc(CNCCCNC(=N)N)cc4)c(=O)nc3[nH]2)c(F)c(Cl)c1F
2. C[C@H](NCCCNC(=N)N)c1ccc(-n2cc3cc(-c4cc(CCC[C@@H](N)CF)cc(Cl)c4F)[nH]c3nc2=O)cc1

0.12 µg/mL
0.25 µg/mL

// each listed compound needs a value for MIC90
1. C[C@H](NCCCNC(=N)N)c1ccc(-n2cc3cc(-c4cc(CCC[C@@H](N)CO)cc(Cl)c4F)[nH]c3nc2=O)cc1
2. C=CCC[C@H](NCCCNC(=N)N)c1ccc(-n2cc3cc(-c4cc(CCC[C@H](C)N)cc(Cl)c4F)[nH]c3nc2=O)cc1
3. COC[C@H](N)CCCc1cc(Cl)c(F)c(-c2cc3cn(-c4ccc(CNCCCNC(=N)N)cc4)c(=O)nc3[nH]2)c1

1: 0.12 µg/mL; 2: 0.25 µg/mL; 3: 0.5 µg/mL

----------
Each entry below carries its measured MIC, system: E. coli MG1655 parent.
Numbers only, in µg/mL.

Take a look at these entries with their results.
Molecule: C[C@H](N)CCCc1cc(Cl)c(F)c(-c2cc3cn(-c4ccc([C@H](N)CCCCNC(=N)N)cc4)c(=O)nc3[nH]2)c1
Numeric Result: 0.25
--
Molecule: C[C@@H](N)CCCc1cc(Cl)c(F)c(-c2cc3cn(-c4ccc(CNCCCNC(=N)N)cc4)c(=O)nc3[nH]2)c1
Numeric Result: 0.5
--
Molecule: C[C@H](NCCCNC(=N)N)c1ccc(-n2cc3cc(-c4cc(CCC5(CN)CC5)cc(Cl)c4F)[nH]c3nc2=O)cc1
Numeric Result: 0.25
--
Molecule: C[C@H](NCCCNC(=N)N)c1ccc(-n2cc3cc(-c4cc(C5CCC(CN)CC5)cc(Cl)c4F)[nH]c3nc2=O)cc1 (stereo partly shown)
Numeric Result: 0.25
--
Molecule: C=C[C@@H](NCCCNC(=N)N)c1ccc(-n2cc3cc(-c4cc(CCC[C@H](C)N)cc(Cl)c4F)[nH]c3nc2=O)cc1
Numeric Result: 0.25
--
Molecule: C[C@H](NCCCNC(=N)N)c1ccc(-n2cc3cc(-c4cc(CCC[C@@H](N)CO)cc(Cl)c4F)[nH]c3nc2=O)cc1
Numeric Result: 0.5
--
Molecule: C=CC[C@H](NCCCNC(=N)N)c1ccc(-n2cc3cc(-c4cc(CCC[C@H](C)N)cc(Cl)c4F)[nH]c3nc2=O)cc1
Numeric Result: 0.25
--
Molecule: C[C@H](NCCCNC(=N)N)c1ccc(-n2cc3cc(-c4cc(CCC[C@@H](N)CF)cc(Cl)c4F)[nH]c3nc2=O)cc1
Numeric Result: 1

Batch request: MIC per item, same order as input.
1. C[C@H](N)CCCc1cc(-c2cc3cn(-c4ccc([C@H](C)NCCCNC(=N)N)cc4)c(=O)nc3[nH]2)c(F)c(Cl)c1F
2. COC[C@H](N)CCCc1cc(Cl)c(F)c(-c2cc3cn(-c4ccc(CNCCCNC(=N)N)cc4)c(=O)nc3[nH]2)c1
3. C=C[C@H](NCCCNC(=N)N)c1ccc(-n2cc3cc(-c4cc(CCC[C@H](C)N)cc(Cl)c4F)[nH]c3nc2=O)cc1

[0.25, 0.25, 0.25]

Batch lookup, MIC per entry.
1. C[C@H](N)CCCc1cc(Cl)c(F)c(-c2cc3cn(-c4ccc([C@H](CCNc5nccs5)NCCCNC(=N)N)cc4)c(=O)nc3[nH]2)c1
2. C[C@H](N)CCCc1cc(OC(F)(F)F)c(F)c(-c2cc3cn(-c4ccc([C@H](C)NCCCNC(=N)N)cc4)c(=O)nc3[nH]2)c1

1. 1
2. 0.5
